Target of assay: Recombinant human caspase-7 (active) (human, UniProt P55210 1-303)
Sequence (P55210 whole entry): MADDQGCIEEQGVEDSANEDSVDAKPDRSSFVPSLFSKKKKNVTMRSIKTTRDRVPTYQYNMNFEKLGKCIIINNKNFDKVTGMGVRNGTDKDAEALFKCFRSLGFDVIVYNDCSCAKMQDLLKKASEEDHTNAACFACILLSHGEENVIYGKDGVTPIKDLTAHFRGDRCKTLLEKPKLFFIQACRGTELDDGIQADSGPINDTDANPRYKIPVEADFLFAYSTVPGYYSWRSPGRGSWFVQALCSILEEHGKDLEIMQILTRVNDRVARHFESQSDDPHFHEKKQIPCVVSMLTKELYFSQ
Assay text: enzyme inhibition assay (fluorogenic substrate cleavage); one unit of active recombinant human caspase incubated with various concentrations of peptide inhibitor in 100 mM NaCl, 50 mM HEPES, 10 mM DTT, 1 mM EDTA, 10% glycerol, 0.1% CHAPS, pH 7.4, 37°C, 30 min; then 200 μM substrate (Ac-DEVD-MCA for caspases-3 and -7, Ac-IETD-MCA for caspase-8, Ac-LEHD-MCA for caspase-9); apparent Ki = IC50/(1+[S]/Km)
Conditions used: both partners purified
Quantity: IC50 (nM)
Expressed in nM, but write only the number.

Qu. Which IC50 reading was recorded for the binder Ac-DEVD-aldehyde (source: bought: Peptide Institute, Inc (synthetic peptide)) [Ac-DEVD-CHO] ?
Ans. 19.7
